System: TNF-α
Test: TNF-α secretion inhibition in LPS-treated THP-1 cells (ELISA)
Type: cell-based
Settings: Homo sapiens, compound 0.5 μM, LPS 500 ng/ml, 24 hours, read-out: THP-1/TNF-a (% inhib)
REPORTED_METRIC: inhibition at 0.5 µM (%)
Just the number in %, nothing appended.

Previously resolved entries follow.
>>> data_value("CCNc1cc(Nc2ccc(C(=O)N3CCC(N4CCN(C)CC4)CC3)c3c2OCC3)nc2[nH]cc(C(F)(F)F)c12")
15.5
>>> data_value("COCCNc1cc(Nc2ccc(S(=O)(=O)N3CCC(N4CCOCC4)CC3)c3c2OCCO3)nc2[nH]cc(C(F)(F)F)c12")
5.5
>>> data_value("CNc1cc(Nc2ccc(C(=O)N3CCOCC3)c3c2OCO3)nc2[nH]cc(C(F)(F)F)c12")
32.8
>>> data_value("CCNc1cc(Nc2ccc(C(=O)N3CCC(N4C[C@@H]5C[C@H]4CO5)CC3)c3c2OCC3)nc2[nH]cc(C(F)(F)F)c12")
1.7
>>> data_value("CCNc1cc(Nc2ccc(C(=O)N3C[C@@H]4C[C@H]3CO4)c3c2OCCO3)nc2[nH]cc(C(F)(F)F)c12")
100

Task: Consider the compound "CCNc1cc(Nc2ccc(C(=O)N3CCN(C4COC4)CC3)c3c2OCC3)nc2[nH]cc(C(F)(F)F)c12" . State its measured inhibition at 0.5 µM.
Output: 9.2

Task: Consider the compound "O=C(c1ccc(Nc2cc(C3CC3)c3c(C(F)(F)F)c[nH]c3n2)c2c1CCO2)N1CCOCC1" . State its measured inhibition at 0.5 µM.
Output: 9.6
